- Measurement target: T1, HLA-B07:02 (human)
- T1 construct: Stability assay: E. coli-expressed biotinylated heavy chain with 125I-labelled b2m; MS: BAP-tagged HLA in HEK293T cells; Treated as one molecule
- Assay comment: pMHC-I dissociation, 125I-b2m, 37C; experiment 1
Readout kind: half-life (h)
Please respond with the number in h and leave the unit unwritten.

Consider MFATLQRSSL . Its measured half-life is 0

half-life measured on GPPARVPAV = 1.5

The measured half-life associated with KPKRDGYMFL reads 3.3

KPKRDGYMF has a reported half-life of 8.3

response.value for FATLQRSSL (field: half-life) = 0.7
